- assayRemarks: Purity and stability test (content of impurities on storage)
- Type: physicochemical
- setupConditions: initial sample, before storage
outcomeMeasure: Content of impurities in the initial sample (%)
Write down the numeric answer in % and omit the unit.

compound	valueUnits	recordedValue
CC(O)C1NC(=O)C(N)CC(O)C(O)NC(=O)C2C(O)C(C)CN2C(=O)C(C(O)CC(N)=O)NC(=O)C(C(O)C(O)c2ccc(O)c(OS(=O)(=O)O)c2)NC(=O)C2CC(O)CN2C1=O (single isomer, unassigned) [Comparative Example 2]	%	1.9
CC(O)C1NC(=O)C(N)CC(O)C(O)NC(=O)C2C(O)C(C)CN2C(=O)C(C(O)CC(N)=O)NC(=O)C(C(O)C(O)c2ccc(O)c(OS(=O)(=O)O)c2)NC(=O)C2CC(O)CN2C1=O (single isomer, unassigned) [Comparative Example 3]	%	1.9

Would you kindly look at the next entry?
Exercise: Complete the entry with Content of impurities in the initial sample for C[C@@H](O)[C@@H]1NC(=O)[C@@H](N)C[C@@H](O)[C@@H](O)NC(=O)[C@@H]2[C@@H](O)[C@@H](C)CN2C(=O)[C@H]([C@H](O)CC(N)=O)NC(=O)[C@H]([C@H](O)[C@@H](O)c2ccc(O)c(OS(=O)(=O)O)c2)NC(=O)[C@@H]2C[C@@H](O)CN2C1=O
Solution: 2.5
